Values from patent US20240109915A1

target: recombinant human ACC1 (rhACC1) (Homo sapiens (Human), UniProt Q13085); experiment: Transcreener ADP detection FP assay, direct inhibition of rhACC1; conditions: Geomean IC50, n ≥ 2 unless * then n = 1; 50 μM ATP, 30 μM acetyl-CoA
pIC50: −log10 of the molar value.
MEASURED_PROPERTY: pIC50

Study these solved cases before continuing.
CN(C)c1cc(C(=O)N2CCC3(CC2)CC(=O)c2nc(C(C)(C)C)sc2C3)cc(-c2ccc(C(N)=O)cc2)n1 [Example 22]: 9.05
CNc1cc2ccccc2cc1C(=O)N1CCC2(CC1)CC(=O)c1nc(C(C)(C)C)sc1C2 [Example 53]: 7.74
CCOc1cnc2c(C)cc(C(=O)N3CCC4(CC3)CC(=O)c3nc(C(C)(C)C)sc3C4)cc2c1 [Example 20]: 7.52

I = CNc1nc2c(C)cccc2cc1C(=O)N1CCC2(CC1)CC(=O)c1nc(C(C)(C)C)sc1C2 [Example 97]
II = Cc1cccc2ccc(C(=O)N3CCC4(CC3)CC(=O)c3nc(C(C)(C)C)sc3C4)cc12 [Example 91]
III = CC(C)(C)c1nc2c(s1)CC1(CCN(C(=O)c3ccc4nccc(O)c4c3)CC1)CC2=O [Example 72]
### Prompt Please list these compounds in decreasing order of pIC50. Answer by naming the labels in the order asked.
### Response I, II, III
(I: 8.74, II: 7.85, III: 5.00)

P = COc1cc(C(=O)N2CCC3(CC2)CC(=O)c2nc(C(C)(C)C)sc2C3)cc2c(C3CC3)nccc12 [Example 99]
Q = Cc1cc(C(=O)N2CCC3(CC2)CC(=O)c2nc(C(C)(C)C)sc2C3)c2[nH]ncc2c1Cl [Example 34]
R = CC(C)(C)c1nc2c(s1)CC1(CCN(C(=O)c3ccc4[nH]cc(Cl)c4c3)CC1)CC2=O [Example 65]
### Prompt Arrange items by their pIC50 values in increasing order. Answer by naming the labels in the order asked.
### Response R, P, Q

P = CCNc1ccc2ccc(C(=O)N3CCC4(CC3)CC(=O)c3nc(C(C)(C)C)sc3C4)cc2n1 [Example 32]
Q = Cc1cn(C)c2c(C)cc(C(=O)N3CCC4(CC3)CC(=O)c3nc(C(C)(C)C)sc3C4)cc12 [Example 87]
### Prompt Pick the one with the larger pIC50: P vs Q # reply format: chosen label
### Response P
(P: 8.46, Q: 8.21)

* * *

molecular target: recombinant human ACC1 (rhACC1) (Homo sapiens (Human)); test: Transcreener ADP detection FP assay, direct inhibition of rhACC1; type: biochemical; settings: Geomean IC50, n ≥ 2 unless * then n = 1; 50 μM ATP, 30 μM acetyl-CoA
MEASURED_PROPERTY: IC50 (nM)

Cc1ccc(C)c2[nH]c(C(=O)N3CCC4(CC3)CC(=O)c3nc(C(C)(C)C)sc3C4)cc12 [Example 55]: 3.5
COc1cc(C(=O)N2CCC3(CC2)CC(=O)c2nc(C(C)(C)C)sc2C3)cc2c(C)n[nH]c12 [Example 49]: 6.4
COc1cc(C(=O)N2CCC3(CC2)CC(=O)c2nc(C(C)(C)C)sc2C3)cc(OC)c1C [Example 81]: 11.7

I = Cc1cc(C(=O)N2CCC3(CC2)CC(=O)c2nc(C(C)(C)C)sc2C3)cc2cc[nH]c12 [Example 17]
II = CC(C)(C)c1nc2c(s1)CC1(CCN(C(=O)c3cc(O)c4ccccc4c3)CC1)CC2=O [Example 57]
### Prompt Pick the one with the larger IC50: I vs II # reply format: chosen label
### Response II

1 = Cc1cc(C(=O)N2CCC3(CC2)CC(=O)c2nc(C(C)(C)C)sc2C3)cc2c(Cl)n[nH]c12 [Example 50]
2 = Cc1cc(C(=O)N2CCC3(CC2)CC(=O)c2nc(C(C)(C)C)sc2C3)cc2c1NCCC2 [Example 93]
### Prompt Pick the one with the larger IC50: 1 vs 2 # reply format: chosen label
### Response 2
(2: 19.5 nM, 1: 5.4 nM)

a = COc1ccc2cc(C(=O)N3CCC4(CC3)CC(=O)c3nc(C(C)(C)C)sc3C4)cc(C)c2n1 [Example 80]
b = Cc1n[nH]c2c(C)cc(C(=O)N3CCC4(CC3)CC(=O)c3nc(C5(C)CC5)sc3C4)cc12 [Example 1]
### Prompt Dear colleague, could you let me know whether a or b has the lower recorded IC50? Thanks. # reply format: chosen label
### Response b

I = COc1ccc(C)c2[nH]c(C(=O)N3CCC4(CC3)CC(=O)c3nc(C(C)(C)C)sc3C4)cc12 [Example 56]
II = Cc1c[nH]c2cc(C(=O)N3CCC4(CC3)CC(=O)c3nc(C(C)(C)C)sc3C4)ccc12 [Example 51]
### Prompt Dear colleague, could you let me know whether I or II has the lower recorded IC50? Thanks. # reply format: chosen label
### Response I
(I: 5.8 nM, II: 22.4 nM)

1 = COc1cc(C(=O)N2CCC3(CC2)CC(=O)c2nc(C(C)(C)C)sc2C3)c2[nH]ncc2c1C [Example 33]
2 = CC(C)(C)c1nc2c(s1)CC1(CCN(C(=O)c3cc(Cl)cc4cc[nH]c34)CC1)CC2=O [Example 90]
3 = COc1cc(C(=O)N2CCC3(CC2)CC(=O)c2nc(C(C)(C)C)sc2C3)cc(-c2ccccc2)n1 [Example 69]
4 = CCc1nc2c(s1)CC1(CCN(C(=O)c3cc(C)c4[nH]nc(C)c4c3)CC1)CC2=O [Example 6]
5 = Cc1c[nH]c2c(C)cc(C(=O)N3CCC4(CC3)CC(=O)c3nc(C(C)(C)C)sc3C4)cc12 [Example 92]
### Prompt Please list these molecules in decreasing order of IC50. Answer by naming the labels in the order asked.
### Response 4, 3, 2, 1, 5
(4: 45.5 nM, 3: 16.1 nM, 2: 9.6 nM, 1: 5.1 nM, 5: 2.4 nM)

P = CCc1nn(C)c2c(OC)cc(C(=O)N3CCC4(CC3)CC(=O)c3nc(C(C)(C)C)sc3C4)cc12 [Example 108]
Q = COc1cc(C(=O)N2CCC3(CC2)CC(=O)c2nc(C(C)(C)C)sc2C3)nc2c(OC)cccc12 [Example 86]
### Prompt Dear colleague, could you let me know whether P or Q has the lower recorded IC50? Thanks. # reply format: chosen label
### Response P
(P: 5.6 nM, Q: 14.3 nM)

P = CNc1cc(C(=O)N2CCC3(CC2)CC(=O)c2nc(C(C)(C)C)sc2C3)cc(-c2ccccc2)n1 [Example 71]
Q = COc1cc(C(=O)N2CCC3(CC2)CC(=O)c2nc(C(C)(C)C)sc2C3)cc(-c2ccc(C(N)=O)cc2)n1 [Example 23]
R = CCOc1cc(C(=O)N2CCC3(CC2)Cc2sc(C(C)(C)C)nc2C(O)C3)cc2c(C)nn(C)c12 (racemic) [Example 109]
### Prompt Please list these molecules in decreasing order of IC50. Answer by naming the labels in the order asked.
### Response R, P, Q
(R: 23.2 nM, P: 13.6 nM, Q: 7.2 nM)

A = CCc1nccc2c(OC)cc(C(=O)N3CCC4(CC3)CC(=O)c3nc(C(C)(C)C)sc3C4)cc12 [Example 29]
B = COc1cc(C(=O)N2CCC3(CC2)CC(=O)c2nc(C(C)(C)C)sc2C3)cc2c(C)nccc12 [Example 28]
### Prompt Pick the one with the larger IC50: A vs B # reply format: chosen label
### Response A
